B1: RAD54B (parent)
chain: YVQEKRDGLKRRQQLEEELLRAKI

variants of: B1; assay: protein stability index of a GFP-peptide fusion (GPS, HEK-293T) (PSI 1-6); higher = more stable; conditions: c terminus: a fixed tail appended;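 further: lentivirally expressed fusions sorted by FACS into six bins by GFP to DsRed ratio, PSI derived from sequencing read proportions per bin multiplied by bin number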
Returns one of Satisfied or Not satisfied; Satisfied when protein stability index is >= 2.

Known results for variants:
{"mutant code": "R21L", "group": "Not satisfied"}
{"mutant code": "Q13D", "group": "Satisfied"}

# input Could you verify whether the entry "R21V" shows protein stability index of no less than 2?
# output Not satisfied

# input And the next one, "V2I" ?
# output Satisfied

# input What about "K23D" ?
# output Satisfied

# input And "L20N" ?
# output Not satisfied

# input Same question for "E16N" please.
# output Satisfied

# input Next entry: "Y1Q"
# output Satisfied

# input Entry "D7W" please
# output Satisfied
